Conditions: in n-propanol, 313.15 K
reported_metric: solubility (mole fraction)
Give only the figure.

Entry O=C(N[C@H](C(=O)O)c1ccccc1)OCc1ccccc1 , solubility (mole fraction) reported as 0.068

----------
Conditions: in acetonitrile, 293.15 K
reported_metric: solubility (mole fraction)
// print number alone

Lookup result for O=C(N[C@H](C(=O)O)c1ccccc1)OCc1ccccc1 ; measured solubility (mole fraction): 0.00966

----------
Conditions: in methyl acetate, 303.15 K
reported_metric: solubility (mole fraction)
Keep it simple and answer with nothing but the number.

Please fill in: solubility (mole fraction) reported for O=C(N[C@H](C(=O)O)c1ccccc1)OCc1ccccc1 = 0.0541

----------
Conditions: in 2-butanone, 313.15 K
reported_metric: solubility (mole fraction)
Just the number, please.

The recorded solubility (mole fraction) for entry O=C(N[C@H](C(=O)O)c1ccccc1)OCc1ccccc1 equals 0.0957
